# target: JAK3 (Homo sapiens (Human), UniProt P52333)
# Sequence (P52333 822-1111): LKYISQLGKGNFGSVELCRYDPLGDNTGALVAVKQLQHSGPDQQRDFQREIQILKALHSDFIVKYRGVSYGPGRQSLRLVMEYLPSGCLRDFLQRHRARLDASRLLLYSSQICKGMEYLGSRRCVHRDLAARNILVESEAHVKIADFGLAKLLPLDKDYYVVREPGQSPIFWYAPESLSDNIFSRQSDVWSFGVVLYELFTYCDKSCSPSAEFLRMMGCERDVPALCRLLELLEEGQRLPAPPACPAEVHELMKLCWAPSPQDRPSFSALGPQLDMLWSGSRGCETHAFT
# assay.info: JAK kinase assay (HTRF), JAK3
# settings: catalytic domain, ATP at Km (2 μM)
observed.property: EC50 (µM)
Reply numerically in µM, unit not repeated.

Sample records with EC50:
N#Cc1ccc([C@H](CO)NC(=O)[C@H]2CCN(c3ncnc4[nH]ccc34)CC23CC3)cc1 [Example 18]
0.0075
N#Cc1ccc([C@H](CO)NC(=O)C2CCN(c3ncnc4[nH]ccc34)CC23CC3)cc1 (stereo partly drawn) [Example 19]
0.0084
C[C@@H](NC(=O)C1CCN(c2ncnc3[nH]ccc23)CC12CC2)c1cccc(F)c1 (stereo partly drawn) [Example 134]
0.171

Query: Quick check: EC50 of O=C(NC[C@H](O)C1CCOCC1)[C@H]1CCN(c2ncnc3[nH]ccc23)CC12CC2 [Example 10] ?
Result: 0.0117

Query: Quick check: EC50 of O=C(N[C@H](CO)C(=O)OCC1CC1)[C@H]1CCN(c2ncnc3[nH]ccc23)CC12CC2 [Example 91] ?
Result: 0.0473

Query: Quick check: EC50 of Cc1cc([C@H](CO)NC(=O)[C@H]2CCN(c3ncnc4[nH]ccc34)CC23CC3)ccc1C#N [Example 54] ?
Result: 0.033

Query: Quick check: EC50 of O=C(N[C@H](CO)C(=O)OCC1CC(F)(F)C1)[C@H]1CCN(c2ncnc3[nH]ccc23)CC12CC2 [Example 42] ?
Result: 0.0202

Query: Quick check: EC50 of O=C(NCc1ccccc1)C1CCN(c2ncnc3[nH]ccc23)CC12CC2 (stereo not drawn) [Example 95] ?
Result: 0.0316

Query: Quick check: EC50 of O=C(N[C@@H](CO)[C@@H](O)c1ccc(F)cn1)[C@H]1CCN(c2ncnc3[nH]ccc23)CC12CC2 [Example 105] ?
Result: 0.056
